Origin of measurements: patent US6838415B1

# assay_explanation: logP by HPLC on reverse-phase column (C 18), acidic range
# Format: physicochemical
# experimental_setup: reverse-phase HPLC column (C 18); pH=2.3; read-out: logP (determined at pH=2.3)
# Experimental: The logP values given in Table 1 were determined in accordance with EE Directive 79/831 Annex V.A8 by HPLC (High Performance Liquid Chromatography) using a reverse-phase column (C 18). Temperature: 43° C. […] The logP values given in Table 3 were determined in accordance with EEC Directive 79/831 Annex V.A8 by HPLC (High Performance Liquid Chromatography) using a reverse-phase column (C 18). […]
assay_readout: chromatographic logP

Qu. Look up and report measured chromatographic logP for this entry: CSc1nn(Cc2cc(C(F)(F)F)ccc2C(=O)c2cnoc2C2CC2)c(=O)n1C [Example 2]
Ans. 2.94
